Biological target: HLA-A*11:01
Test: IEDB peptide-MHC binding, purified MHC/competitive/fluorescence; bounds were set here for any values at or beyond the usual limits of such assays
Details: source organism: Variola virus
MEASURED QUANTITY: IC50 (µM)

> print(dat)
   sequence.chain  value.reported
1       ATLEDDRER            49.4

---

Biological target: HLA-A*01:01
Experiment: IEDB peptide-MHC binding, purified MHC/direct/fluorescence; filed as Kd, often an IC50 or EC50 that approximates it; bounds were set here for any values at or beyond the usual limits of such assays
Details: source organism: Brucella abortus
MEASURED QUANTITY: Kd (nM)

> print(dat)
   sequence.chain  measured.quantity  value.reported
1       LSDDSGLMV                 Kd            21.7
2       LTDAFHGYH                 Kd            75.4
